biological target: Neu5Ac(a2-3)Gal(b1-4)GlcNAc(b1-2)Man(a1-3)[Neu5Ac(a2-3)Gal(b1-4)GlcNAc(b1-2)Man(a1-6)]Man(b1-4)GlcNAc(b1-4)GlcNAc; experiment: glycan array binding signal (z-score within array); higher = stronger binding; conditions: glycan notation: IUPAC condensed, linker removed
This excerpt belongs to a sample that is enriched for the strongest signals.
For each of the binders below, state its glycan array binding signal (z-score).
# respond with the number and nothing more

Consider the binder Apa (Mycobacterium tuberculosis), Rv1860 (protein) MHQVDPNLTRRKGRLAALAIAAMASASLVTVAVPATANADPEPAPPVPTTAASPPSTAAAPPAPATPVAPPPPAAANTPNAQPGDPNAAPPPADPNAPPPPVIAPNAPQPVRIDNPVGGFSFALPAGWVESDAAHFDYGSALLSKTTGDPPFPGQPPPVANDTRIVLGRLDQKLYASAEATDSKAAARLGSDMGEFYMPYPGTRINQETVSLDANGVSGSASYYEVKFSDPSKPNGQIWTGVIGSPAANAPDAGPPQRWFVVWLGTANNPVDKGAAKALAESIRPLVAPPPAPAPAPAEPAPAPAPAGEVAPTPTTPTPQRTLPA and give its recorded glycan array binding signal (z-score).
-0.603

Consider the binder Pwp6 (Candida glabrata) (protein) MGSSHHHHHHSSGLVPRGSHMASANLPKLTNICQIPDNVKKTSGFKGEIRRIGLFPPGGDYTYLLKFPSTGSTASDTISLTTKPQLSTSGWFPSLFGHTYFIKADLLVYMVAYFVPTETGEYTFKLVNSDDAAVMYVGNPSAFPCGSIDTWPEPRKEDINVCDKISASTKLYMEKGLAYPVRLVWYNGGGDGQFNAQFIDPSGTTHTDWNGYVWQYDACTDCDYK and give its recorded glycan array binding signal (z-score).
4.2

Consider the binder Pwp7 (Candida glabrata) (protein) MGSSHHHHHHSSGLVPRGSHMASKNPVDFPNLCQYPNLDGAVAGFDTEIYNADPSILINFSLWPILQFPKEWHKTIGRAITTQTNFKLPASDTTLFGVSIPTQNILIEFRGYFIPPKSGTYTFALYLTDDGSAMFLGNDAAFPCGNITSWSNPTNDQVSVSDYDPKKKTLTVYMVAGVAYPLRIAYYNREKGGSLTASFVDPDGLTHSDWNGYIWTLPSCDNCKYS and give its recorded glycan array binding signal (z-score).
0.472

Consider the binder F4 (Escherichia coli), A0A6L9DDF0 (protein) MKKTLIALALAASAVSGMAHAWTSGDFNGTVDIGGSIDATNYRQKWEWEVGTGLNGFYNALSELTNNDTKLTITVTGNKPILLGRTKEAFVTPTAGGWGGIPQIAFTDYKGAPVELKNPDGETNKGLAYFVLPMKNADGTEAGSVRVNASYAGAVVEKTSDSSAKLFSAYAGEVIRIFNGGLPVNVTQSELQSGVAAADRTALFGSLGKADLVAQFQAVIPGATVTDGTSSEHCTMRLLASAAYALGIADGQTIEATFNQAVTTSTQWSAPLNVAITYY and give its recorded glycan array binding signal (z-score).
-0.209
